protocol: AUC (0 to 12 hrs) in BALB/c mouse at 110 mg/kg, sc
conditions: plasma
measured_parameter: AUC(0-t) at 12 h (µg·h/mL)
Please respond with the number in µg·h/mL and leave the unit unwritten.

// recorded AUC(0-t) at 12 h for CN[C@H](CC(C)C)C(=O)N[C@H]1C(=O)N[C@@H](CC(N)=O)C(=O)N[C@H]2C(=O)N[C@H]3C(=O)N[C@H](C(=O)N[C@H](C(=O)O)c4cc(O)cc(O)c4-c4cc3ccc4O)[C@H](O)c3ccc(c(Cl)c3)Oc3cc2cc(c3O[C@@H]2O[C@H](CO)[C@@H](O)[C@H](O)[C@H]2O[C@H]2C[C@](C)(N)[C@H](O)[C@H](C)O2)Oc2ccc(cc2Cl)[C@H]1O : 140
